- Experimental system: T1, AFP158/HLA-A*02:01 complex (human)
- T1 construct: flowed over the chip in SPR; also called AFP158 pro
- Assay method text: SPR, KD ratio to AS170036 VL1VH1;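 further: crude scFv captured on a sensor chip, peptide–HLA complex passed over at several concentrations, association then buffer dissociation, KD derived from on- and off-rates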
Values of Affinity increase greater than or equal to 1 fold map to 1; values below map to -1.

# Binder, Class label
records = [
    ("HS57N (scFv, AS170036 VL1VH1 scFv mutein) scFv: QSALTQPRSVSGSPGQSVTISCAGTSSDVGSENYVSWYQQHPGKAPKLMIYQVNKRASGVPDRFSGSKSGNTASLTISGLQAEDEADYYCASYRSSDHNIVFGGGTKLTVLGGGGSGGGGSGGGGSEVQLVESGGGLVQPGGSLRLSCAASGFTFSSYAMSWVRQAPGKGLEWVSTINSGTGNPYYADSVKGRFTISRDNSKNTLYLQMNSLRAEDTAVYYCAKNFFDGSWFLGPPAMDYWGQGTLVTVSSHHHHHH", 1),
    ("HS57Y (scFv, AS170036 VL1VH1 scFv mutein) scFv: QSALTQPRSVSGSPGQSVTISCAGTSSDVGSENYVSWYQQHPGKAPKLMIYQVNKRASGVPDRFSGSKSGNTASLTISGLQAEDEADYYCASYRSSDHNIVFGGGTKLTVLGGGGSGGGGSGGGGSEVQLVESGGGLVQPGGSLRLSCAASGFTFSSYAMSWVRQAPGKGLEWVSTINSGTGYPYYADSVKGRFTISRDNSKNTLYLQMNSLRAEDTAVYYCAKNFFDGSWFLGPPAMDYWGQGTLVTVSSHHHHHH", 1),
    ("HP58Q (scFv, AS170036 VL1VH1 scFv mutein) scFv: QSALTQPRSVSGSPGQSVTISCAGTSSDVGSENYVSWYQQHPGKAPKLMIYQVNKRASGVPDRFSGSKSGNTASLTISGLQAEDEADYYCASYRSSDHNIVFGGGTKLTVLGGGGSGGGGSGGGGSEVQLVESGGGLVQPGGSLRLSCAASGFTFSSYAMSWVRQAPGKGLEWVSTINSGTGSQYYADSVKGRFTISRDNSKNTLYLQMNSLRAEDTAVYYCAKNFFDGSWFLGPPAMDYWGQGTLVTVSSHHHHHH", -1),
    ("HP58A (scFv, AS170036 VL1VH1 scFv mutein) scFv: QSALTQPRSVSGSPGQSVTISCAGTSSDVGSENYVSWYQQHPGKAPKLMIYQVNKRASGVPDRFSGSKSGNTASLTISGLQAEDEADYYCASYRSSDHNIVFGGGTKLTVLGGGGSGGGGSGGGGSEVQLVESGGGLVQPGGSLRLSCAASGFTFSSYAMSWVRQAPGKGLEWVSTINSGTGSAYYADSVKGRFTISRDNSKNTLYLQMNSLRAEDTAVYYCAKNFFDGSWFLGPPAMDYWGQGTLVTVSSHHHHHH", -1),
    ("HF101Y (scFv, AS170036 VL1VH1 scFv mutein) scFv: QSALTQPRSVSGSPGQSVTISCAGTSSDVGSENYVSWYQQHPGKAPKLMIYQVNKRASGVPDRFSGSKSGNTASLTISGLQAEDEADYYCASYRSSDHNIVFGGGTKLTVLGGGGSGGGGSGGGGSEVQLVESGGGLVQPGGSLRLSCAASGFTFSSYAMSWVRQAPGKGLEWVSTINSGTGSPYYADSVKGRFTISRDNSKNTLYLQMNSLRAEDTAVYYCAKNFYDGSWFLGPPAMDYWGQGTLVTVSSHHHHHH", 1),
    ("HG56K (scFv, AS170036 VL1VH1 scFv mutein) scFv: QSALTQPRSVSGSPGQSVTISCAGTSSDVGSENYVSWYQQHPGKAPKLMIYQVNKRASGVPDRFSGSKSGNTASLTISGLQAEDEADYYCASYRSSDHNIVFGGGTKLTVLGGGGSGGGGSGGGGSEVQLVESGGGLVQPGGSLRLSCAASGFTFSSYAMSWVRQAPGKGLEWVSTINSGTKSPYYADSVKGRFTISRDNSKNTLYLQMNSLRAEDTAVYYCAKNFFDGSWFLGPPAMDYWGQGTLVTVSSHHHHHH", -1),
    ("HG56A (scFv, AS170036 VL1VH1 scFv mutein) scFv: QSALTQPRSVSGSPGQSVTISCAGTSSDVGSENYVSWYQQHPGKAPKLMIYQVNKRASGVPDRFSGSKSGNTASLTISGLQAEDEADYYCASYRSSDHNIVFGGGTKLTVLGGGGSGGGGSGGGGSEVQLVESGGGLVQPGGSLRLSCAASGFTFSSYAMSWVRQAPGKGLEWVSTINSGTASPYYADSVKGRFTISRDNSKNTLYLQMNSLRAEDTAVYYCAKNFFDGSWFLGPPAMDYWGQGTLVTVSSHHHHHH", 1),
    ("HG56Y (scFv, AS170036 VL1VH1 scFv mutein; also called AS170036 VL1VH1-VHG56Y) scFv: QSALTQPRSVSGSPGQSVTISCAGTSSDVGSENYVSWYQQHPGKAPKLMIYQVNKRASGVPDRFSGSKSGNTASLTISGLQAEDEADYYCASYRSSDHNIVFGGGTKLTVLGGGGSGGGGSGGGGSEVQLVESGGGLVQPGGSLRLSCAASGFTFSSYAMSWVRQAPGKGLEWVSTINSGTYSPYYADSVKGRFTISRDNSKNTLYLQMNSLRAEDTAVYYCAKNFFDGSWFLGPPAMDYWGQGTLVTVSSHHHHHH", 1),
    ("HG56N (scFv, AS170036 VL1VH1 scFv mutein; also called AS170036 VL1VH1-VHG56N) scFv: QSALTQPRSVSGSPGQSVTISCAGTSSDVGSENYVSWYQQHPGKAPKLMIYQVNKRASGVPDRFSGSKSGNTASLTISGLQAEDEADYYCASYRSSDHNIVFGGGTKLTVLGGGGSGGGGSGGGGSEVQLVESGGGLVQPGGSLRLSCAASGFTFSSYAMSWVRQAPGKGLEWVSTINSGTNSPYYADSVKGRFTISRDNSKNTLYLQMNSLRAEDTAVYYCAKNFFDGSWFLGPPAMDYWGQGTLVTVSSHHHHHH", 1),
]
